Each recorded value in this set is attributed to patent US20260103465A1.

As shown below, each of these molecules has a reported pIC50 value.
- Target or test system: GSK3a (GST-full length GSK3a) (Homo sapiens)
- Construct: GST-full length GSK3a [SignalChem G08-10G]; purchased SignalChem G08-10G
- Sequence (P49840 whole entry): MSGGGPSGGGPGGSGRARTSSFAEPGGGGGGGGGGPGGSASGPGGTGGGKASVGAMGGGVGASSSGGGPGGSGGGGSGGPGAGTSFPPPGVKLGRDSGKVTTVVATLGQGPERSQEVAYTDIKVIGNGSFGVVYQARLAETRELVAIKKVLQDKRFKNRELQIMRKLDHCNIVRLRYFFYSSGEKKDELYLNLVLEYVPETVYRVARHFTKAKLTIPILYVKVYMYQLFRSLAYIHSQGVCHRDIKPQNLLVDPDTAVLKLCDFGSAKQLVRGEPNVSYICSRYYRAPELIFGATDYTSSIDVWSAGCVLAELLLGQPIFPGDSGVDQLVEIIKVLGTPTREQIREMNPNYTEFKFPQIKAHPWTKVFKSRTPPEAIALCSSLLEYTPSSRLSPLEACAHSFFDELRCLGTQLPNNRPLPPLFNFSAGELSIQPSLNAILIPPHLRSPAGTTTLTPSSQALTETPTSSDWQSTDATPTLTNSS
- Experimental details: GSK3a TR-FRET kinase inhibition assay
- Format: biochemical
- Settings: 1 mM ATP; Table 5; read-out: GSK3α TR-FRET 1 mM ATP Average IC50
pIC50: −log10 of the molar value.

Given item CC1(C)CC2=C(C(=O)[C@@H]1F)[C@](C)(c1ccccc1)c1c(ncc(F)c1C#N)N2 (single isomer, unassigned) [Compound 616B] , the value recorded as its pIC50 is 6.00 to 7.00

Recorded result, CC(C)Oc1cccc(C2(C)C3=C(CC(C)(C)CC3=O)Nc3ncc(C(F)(F)F)cc32)c1 (single isomer, unassigned) [648A] , pIC50: 4.70 to 5.30

The reported pIC50 of the molecule CN(C)c1cnc2c(c1C#N)C(C)(c1ccccc1)C1=C(CC(C)(C)CC1=O)N2 (single isomer, unassigned) [624A] was 4.70 to 5.30

----------
- Tested on: MDR1-MDCK cell monolayers
- Experimental details: MDR1/MDCK permeability assay
- Format: in vitro ADME
- Settings: A to B; Table 4
Listing: MDCK Permeability (MDR1-MDCK); Mean; Papp(A-B) (10^−6 cm/s) of selected compounds

In the examples that follow, each entry is paired with its recorded MDCK Permeability (MDR1-MDCK); Mean; Papp(A-B) (10^−6 cm/s).
CCC1(c2cccc(-c3cncn3C(C)C)c2)C2=C(CC(C)(C)CC2=O)Nc2ncc(F)cc21 (single isomer, unassigned) [Compound 1038B]: 0.70 10^−6 cm/s
CCC1(c2cccc(-c3cncn3C(C)C)c2)C2=C(CC(C)(C)CC2=O)Nc2ncccc21 (single isomer, unassigned) [Compound 149A]: 2.3 10^−6 cm/s
CCC1(c2cccc(O)c2)C2=C(CC(C)(C)CC2=O)Nc2ncc(F)cc21 (single isomer, unassigned) [Compound 1010A]: 0.60 10^−6 cm/s
CCC1(c2cccc(-c3ccccn3)c2)C2=C(CC(C)(C)CC2=O)Nc2ncccc21 (single isomer, unassigned) [Compound 1016A]: 4.5 10^−6 cm/s
CCC1(c2cccc(-c3ccncc3OC)c2)C2=C(CC(C)(C)CC2=O)Nc2ncc(F)cc21 (single isomer, unassigned) [Compound 1037B]: 2.7 10^−6 cm/s
CCC1(c2cccc(C(C)C)c2)C2=C(CC(C)(C)CC2=O)Nc2ncccc21 (single isomer, unassigned) [Compound 1011B]: 15 10^−6 cm/s
CCC1(c2cccc(-c3cc(C)ncc3C)c2)C2=C(CC(C)(C)CC2=O)Nc2ncccc21 (single isomer, unassigned) [Compound 1027B]: 5.1 10^−6 cm/s
CCC1(c2cccc(-c3ccncc3)c2)C2=C(CC(C)(C)CC2=O)Nc2ncccc21 (single isomer, unassigned) [Compound 1017A]: 6.9 10^−6 cm/s
CCC1(c2ccccc2)C2=C(CC3(CCC3)CC2=O)Nc2ncccc21 (single isomer, unassigned) [Compound 110B]: 13 10^−6 cm/s
CCC1(c2cccc(-c3ccnn3C)c2)C2=C(CC(C)(C)CC2=O)Nc2ncccc21 (single isomer, unassigned) [Compound 1019A]: 4.2 10^−6 cm/s

Lab note: compound CCC1(c2cccc(-c3ccncc3C)c2)C2=C(CC(C)(C)CC2=O)Nc2ncc(F)cc21 (single isomer, unassigned) [Compound 1031B] tested on MDR1-MDCK cell monolayers; recorded MDCK Permeability (MDR1-MDCK); Mean; Papp(A-B) (10^−6 cm/s) was 6.2 10^−6 cm/s

MDCK Permeability (MDR1-MDCK); Mean; Papp(A-B) (10^−6 cm/s) for MDR1-MDCK cell monolayers with input CCC1(c2ccccc2)C2=C(CC(C)(C)CC2=O)Nc2ncccc21 (single isomer, unassigned) [102 B] equals 6.7 10^−6 cm/s

CCC1(c2cccc(-c3cc(C)nn3C)c2)C2=C(CC(C)(C)CC2=O)Nc2ncccc21 (single isomer, unassigned) [Compound 1024B] on MDR1-MDCK cell monolayers gives MDCK Permeability (MDR1-MDCK); Mean; Papp(A-B) (10^−6 cm/s) = 2.8 10^−6 cm/s
